# reported Cell-Surface Stabilization Index E*01:01; entries follow
# tested_system: HLA-E*01:01 (Homo sapiens, UniProt P13747, G128R)
# assay_explanation: HLA-E/peptide cell-surface stabilization (binding) assay, RMA-S cells transfected with HLA-E*01:01
# Assay type: cell-based
# Set-up: RMA-S cells expressing HLA-E*01:01 and E*01:03 were generated by transfecting the genes into the RMA-S cell line; expressed in transfected cells; host or cells: murine TAP-deficient RMA-S cells
# experimental_parameters: RMA-S cells with HLA-E*01:01 and human β2-microglobulin; overnight 26 °C, peptide 1 h 26 °C, 3 h 37 °C; peptide 100 μg/ml; Index = (Sample 37 °C – No peptide 37 °C)/(Sample 26 °C – No peptide 26 °C); flow cytometry
# Protocol: Binding of PM9 to both HLA-E*01:01 and –E*01:03 alleles was assessed using an HLA-E/peptide cell-surface stabilization assays. Thus, murine RMA-S cells deficient in transporter associated with antigen processing (TAP) were stably transfected with one of the two HLA-E alleles together with human β2-microglobuline. […]
property_measured: Cell-Surface Stabilization Index E*01:01

sequence_code="TEEKIKALTEICKEM [C182, tHIVconsvX 15-mer peptide […]]" reported_value=0.33
sequence_code=IVRMYSPTSILDIKQ reported_value=0.03
sequence_code="VYYRDSRDPIWKGPA [C376, tHIVconsvX 15-mer peptide […]]" reported_value=0.22
sequence_code="INEEAAEWDRVHPVH [C037, tHIVconsvX 15-mer peptide […]]" reported_value=0.30
sequence_code="QMAVFIHNFKRKGGI [C352, tHIVconsvX 15-mer peptide […]]" reported_value=0.26
